Recorded Potency for the following molecules
- experimental_protocol: Confirmatory qHTS for inhibitors of SARS-S pseudo-typed particle cell entry
- details: SARS-S pseudotyped particle cell entry, reporter luminescence; series mostly up to 57.1 µM
Results filed as inconclusive are left out. Activity calls are given as the source filed them. The call rests on the fitted dose curve.
recorded_endpoint: Potency

- molecule: "Nc1ccn([C@@H]2O[C@H](CO)[C@@H](O)C2(F)F)c(=O)n1"
  result: "0.192 µM (active)"
- molecule: "NCCNc1ccc(NCCN)c2c1C(=O)c1ccncc1C2=O"
  result: "0.857 µM (active)"
- molecule: "CCCCCCCCCCCCCC[n+]1ccc(C)cc1"
  result: "3.83 µM (active)"
- molecule: "COc1cc2c(cc1Cc1cccc(Cl)c1F)c(=O)c(C(=O)O)cn2[C@H](CO)C(C)C"
  result: "0.0607 µM (active)"
- molecule: "C[C@]12CC[C@H](O)C[C@H]1CCC1C2CC[C@]2(C)[C@@H](c3ccc(=O)oc3)C[C@H]3O[C@]132 (stereo not given in full)"
  result: "5.41 µM (active)"
- molecule: "COc1cccc2c1C(=O)c1c(O)c3c(c(O)c1C2=O)C[C@@](O)(C(=O)CO)CC3OC1CC(N2CCOC(OC)C2)C(O)C(C)O1 (stereo not given in full)"
  result: "0.0961 µM (active)"
- molecule: "COc1cc([C@@H]2c3cc4c(cc3C(O[C@@H]3O[C@@H]5CO[C@@H](c6cccs6)OC5[C@H](O)[C@H]3O)C3COC(=O)[C@@H]32)OCO4)cc(OC)c1O (stereo not given in full)"
  result: "1.08 µM (active)"
- molecule: "COc1ccc2cc1Oc1ccc(cc1)C[C@H]1c3c(cc4c(c3Oc3cc5c(cc3OC)CCN(C)[C@@H]5C2)OCO4)CCN1C"
  result: "2.15 µM (active)"
- molecule: "CN1CCC(=C2c3ccccc3CCc3sccc32)CC1"
  result: "27.1 µM (active)"
- molecule: "CC[C@@]1(O)C(=O)OCc2c1cc1n(c2=O)Cc2cc3c(CN(C)C)c(O)ccc3nc2-1"
  result: "0.764 µM (active)"
- molecule: "CCCCCCCCCCCC[n+]1ccc2ccccc2c1"
  result: "3.83 µM (active)"
- molecule: "COC(=O)C1=C(C)NC(C)=C(C(=O)OCC(C)C)C1c1ccccc1[N+](=O)[O-] (stereo not given)"
  result: "19.2 µM (active)"
- molecule: "C=C1c2c(Cl)ccc(O)c2C(O)=C2C(=O)[C@@]3(O)C(O)=C(C(N)=O)C(=O)[C@@H](N(C)C)[C@@H]3[C@@H](O)[C@H]12"
  result: "15.2 µM (active)"
- molecule: "CCN(CC)CCNC(=O)c1c(C)[nH]c(/C=C2\\C(=O)Nc3ccc(F)cc32)c1C"
  result: "6.07 µM (active)"
- molecule: "CN(C)CCC=C1c2ccccc2C(C)(C)c2ccccc21"
  result: "10.8 µM (active)"

Source: PubChem BioAssay AID1479148
